# subject_of_test: T1, cFΦR4-PCP (not fully specified)
# T1 chain: FXRRRRQXDEXLI
endpoint_label: kcat/KM (dephosphorylation of pCAP peptide) (M⁻¹ s⁻¹)
Give bare numbers, in M⁻¹ s⁻¹.

Task: Fill in reported kcat/KM (dephosphorylation of pCAP peptide) for this entry: VHR (protein) MSGSFELSVQDLNDLLSDGSGCYSLPSQPCNEVTPRIYVGNASVAQDIPKLQKLGITHVLNAAEGRSFMHVNTNANFYKDSGITYLGIKANDTQEFNLSAYFERAADFIDQALAQKNGRVLVHCREGYSRSPTLVIAYLMMRQKMDVKSALSIVRQNREIGPNDGFLAQLCQLNDRLAKEGKLKP
Result: 2460
